# system: Cbl-B (Homo sapiens)
# Construct: MSD-Based Assay for Degradation of Cbl-B in THP-1 Cells; endogenous in cells; host or cells: THP-1 (title) / Jurkat (protocol text)
# test: MSD-based assay for degradation of Cbl-B in THP-1 cells
# Type: cell-based
# test-parameters: Cbl-B degradation, Jurkat cells seeded (heading: THP-1 cells), 24 hours incubation, MSD readout; read-out: Dmax
Consider the following compounds; for each one, report its Dmax.

Q: Need Dmax of Cn1cnnc1CC1(c2cccc(-n3cc4c(C(F)(F)F)cc(CN5CCC(OCCCN6CCN(c7ccc8c(c7)CN([C@H]7CCC(=O)NC7=O)C8=O)CC6)CC5)cn4c3=O)c2)COC1 (single isomer, unassigned) , thanks.
A: < 30%

Q: Quick one: Cn1cnnc1CC1(c2cccc(-n3cc4c(C(F)(F)F)cc(CN5CCC(OCCOCc6ccc(CN7CCN(c8cc9c(cc8F)C(=O)N(C8CCC(=O)NC8=O)C9=O)CC7)cc6)CC5)cn4c3=O)c2)COC1 (stereo not shown)
A: < 30%

Q: Quick one: Cn1cnnc1[C@@H](c1cccc(-n2cc3c(C(F)(F)F)cc(CN4CC[C@H](OCCOCc5ccc(COCCNc6cccc7c6C(=O)N(C6CCC(=O)NC6=O)C7=O)cc5)C4)cn3c2=O)c1)C1CCC1 (stereo partly shown)
A: 30 to 50%

Q: Quick one: CN(CCN(C)C(=O)c1cc(C(F)(F)F)c2cn(-c3cccc([C@H](c4nncn4C)C4CCC4)c3)c(=O)n2c1)C(=O)c1ccc(N2CCN(c3ccc4c(c3)CN([C@@H]3CCC(=O)NC3=O)C4=O)CC2)cc1 (single isomer, unassigned)
A: < 30%

----------
Consider the following molecules; for each one, report its DC50.
# system: Cbl-B (Homo sapiens, UniProt Q13191)
# Construct: MSD-Based Assay for Degradation of Cbl-B in THP-1 Cells; endogenous in cells; host or cells: THP-1 (title) / Jurkat (protocol text)
# Sequence (Q13191 whole entry): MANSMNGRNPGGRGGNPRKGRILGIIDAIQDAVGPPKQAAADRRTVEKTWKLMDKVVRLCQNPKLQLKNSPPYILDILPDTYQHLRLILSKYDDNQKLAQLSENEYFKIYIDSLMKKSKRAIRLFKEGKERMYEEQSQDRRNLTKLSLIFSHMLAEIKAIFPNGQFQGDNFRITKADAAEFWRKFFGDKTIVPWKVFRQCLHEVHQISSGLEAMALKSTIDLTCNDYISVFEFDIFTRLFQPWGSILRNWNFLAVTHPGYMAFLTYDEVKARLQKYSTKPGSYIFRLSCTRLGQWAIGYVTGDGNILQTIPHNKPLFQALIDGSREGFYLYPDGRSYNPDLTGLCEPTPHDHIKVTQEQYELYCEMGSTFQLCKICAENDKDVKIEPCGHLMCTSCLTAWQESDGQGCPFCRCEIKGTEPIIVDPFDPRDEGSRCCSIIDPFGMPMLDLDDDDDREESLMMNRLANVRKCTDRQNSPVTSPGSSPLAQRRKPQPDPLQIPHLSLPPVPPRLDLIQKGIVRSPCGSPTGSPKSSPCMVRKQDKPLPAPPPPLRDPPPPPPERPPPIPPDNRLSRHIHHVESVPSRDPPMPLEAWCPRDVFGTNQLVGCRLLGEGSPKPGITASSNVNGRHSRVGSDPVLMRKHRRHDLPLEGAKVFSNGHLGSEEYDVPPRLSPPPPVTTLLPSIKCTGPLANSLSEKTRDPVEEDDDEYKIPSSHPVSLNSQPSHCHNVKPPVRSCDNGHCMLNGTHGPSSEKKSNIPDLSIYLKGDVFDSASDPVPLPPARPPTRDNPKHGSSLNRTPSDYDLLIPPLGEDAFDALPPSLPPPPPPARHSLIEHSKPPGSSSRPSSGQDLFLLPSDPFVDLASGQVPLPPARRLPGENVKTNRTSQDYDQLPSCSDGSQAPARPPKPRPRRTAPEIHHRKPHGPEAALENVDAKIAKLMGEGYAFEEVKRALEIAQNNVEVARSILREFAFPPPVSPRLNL
# test: MSD-based assay for degradation of Cbl-B in THP-1 cells
# Assay type: cell-based
# test-parameters: Cbl-B degradation, Jurkat cells seeded (heading: THP-1 cells), 24 hours incubation, MSD readout
# Method: MSD-Based Assay for Degradation of Cbl-B in THP-1 Cells Assay plates were then shaken at 600 rpm for 5 minutes, followed by incubation for 24 hours in the 37° C. TC incubator. […] Cell debris was then spun down at maximum speed (about 3200 g) for 30 min and lysates frozen in the −80° C. fridge. […] Plates were again washed 3× with 150 ul/well of 1×TBST, followed by addition of 1×MSD reading buffer (MSD, R92TC-2), 150 ul/well, diluted from 4× with water. […]

Q: Need DC50 of Cn1cnnc1[C@@H](c1cccc(-n2cc3c(C(F)(F)F)cc(CN4CCC(OCc5ccc(C6CCN(c7ccc8c(c7)CN([C@@H]7CCC(=O)NC7=O)C8=O)CC6)cc5)CC4)cn3c2=O)c1)C1CCC1 (single isomer, unassigned) , thanks.
A: > 10 µM

Q: Quick one: Cn1cnnc1CC1(c2cccc(-n3cc4c(C(F)(F)F)cc(CN5CCC(CN6CCC(CN7CCN(c8ccc9c(c8)CN(C8CCC(=O)NC8=O)C9=O)CC7)CC6)CC5)cn4c3=O)c2)COC1 (centres unmarked)
A: > 10 µM

Q: Quick one: Cn1cnnc1[C@@H](c1cccc(-n2cc3c(C(F)(F)F)cc(CN4CCC(CC(=O)N5CCC(Cc6ccc(-c7ccc8c(c7)CN([C@H]7CCC(=O)NC7=O)C8=O)cc6)CC5)CC4)cn3c2=O)c1)C1CCC1
A: < 0.03 µM

Q: Quick one: Cn1cnnc1[C@@H](c1cccc(-n2cc3c(C(F)(F)F)cc(CN4CCC(OCc5ccc(C(=O)N6CCN(c7ccc8c(c7)CN([C@H]7CCC(=O)NC7=O)C8=O)CC6)cc5)CC4)cn3c2=O)c1)C1CCC1 (single isomer, unassigned)
A: < 0.03 µM

Q: Quick one: Cn1cnnc1[C@@H](c1cccc(-n2cc3c(C(F)(F)F)cc(CN4CCC(OCCOCc5ccc(CNc6cccc7c6C(=O)N(C6CCC(=O)NC6=O)C7=O)cc5)CC4)cn3c2=O)c1)C1CCC1 (some centres unmarked)
A: 1 to 10 µM

Q: Quick one: Cn1cnnc1[C@@H](c1cccc(-n2cc3c(C(F)(F)F)cc(CN4CCC(OCc5ccc(CN6CCN(c7ccc8c(c7)CN([C@H]7CCC(=O)NC7=O)C8=O)CC6)cc5)CC4)cn3c2=O)c1)C1CCC1 (single isomer, unassigned)
A: < 0.03 µM

Q: Quick one: CO[C@H]1C[C@](c2cccc(-n3cc4c(C(F)(F)F)cc(CN5CCC(OCc6ccc(CN7CCN(c8ccc9c(c8)CN([C@H]8CCC(=O)NC8=O)C9=O)CC7)cc6)CC5)cn4c3=O)c2)(c2nncn2C)C1 (single isomer, unassigned)
A: < 0.03 µM

Q: Quick one: Cn1cnnc1CC1(c2cccc(-n3cc4c(C(F)(F)F)cc(CN5CCC(OCCOCc6ccc(COCCNc7cccc8c7C(=O)N(C7CCC(=O)NC7=O)C8=O)cc6)CC5)cn4c3=O)c2)COC1 (centres unmarked)
A: 0.3 to 1 µM

----------
# system: Cbl-B (Homo sapiens)
# Construct: MSD-Based Assay for Degradation of Cbl-B in THP-1 Cells; endogenous in cells; host or cells: THP-1 (title) / Jurkat (protocol text)
# test: MSD-based assay for degradation of Cbl-B in THP-1 cells
# Assay type: cell-based
# test-parameters: Cbl-B degradation, Jurkat cells seeded (heading: THP-1 cells), 24 hours incubation, MSD readout
measurement-kind: DC50

Q: Value wanted: DC50 (Cbl-B (Homo sapiens)) of entry CO[C@H]1C[C@@](c2cccc(-n3cc4c(C(F)(F)F)cc(CN5CCC(CN(C)C(=O)c6ccc(N7CCN(c8ccc9c(c8)CN([C@@H]8CCC(=O)NC8=O)C9=O)CC7)cc6)CC5)cn4c3=O)c2)(c2nncn2C)C1
A: 1000 to 10000 nM

Q: Quick one: Cn1cnnc1[C@@H](c1cccc(-n2cc3c(C(F)(F)F)cc(CN4CCC(N5CCN(c6ccc7c(c6)CN([C@H]6CCC(=O)NC6=O)C7=O)CC5)CC4)cn3c2=O)c1)C1CCC1 (single isomer, unassigned)
A: 1000 to 10000 nM

Q: Quick one: Cn1cnnc1[C@@H](c1cccc(-n2cc3c(C(F)(F)F)cc(CN4CCC(CC(=O)N5CCC(Cc6ccc(-c7ccc8c(c7)CN([C@@H]7CCC(=O)NC7=O)C8=O)cc6)CC5)CC4)cn3c2=O)c1)C1CCC1
A: 300 to 1000 nM

Q: Quick one: Cn1cnnc1[C@@H](c1cccc(-n2cc3c(C(F)(F)F)cc(CN4CCC[C@@H](OCCN5CCC(CN6CCN(c7ccc8c(c7)CN([C@@H]7CCC(=O)NC7=O)C8=O)CC6)CC5)C4)cn3c2=O)c1)C1CCC1 (single isomer, unassigned)
A: 1000 to 10000 nM

Q: Quick one: Cn1cnnc1[C@@H](c1cccc(-n2cc3c(C(F)(F)F)cc(CN4CCC(OCCN5CCN(CC6CCN(c7ccc8c(c7)CN([C@H]7CCC(=O)NC7=O)C8=O)CC6)CC5)CC4)cn3c2=O)c1)C1CCC1 (single isomer, unassigned)
A: < 30 nM

Q: Quick one: Cn1cnnc1CC1(c2cccc(-n3cc4c(C(F)(F)F)cc(CN5CCC[C@@H](OC6CCN(C(=O)c7ccc(N8CCN(c9ccc%10c(c9)CN([C@@H]9CCC(=O)NC9=O)C%10=O)CC8)cc7)CC6)C5)cn4c3=O)c2)COC1 (single isomer, unassigned)
A: < 30 nM

Q: Quick one: Cn1cnnc1CC1(c2cccc(-n3cc4c(C(F)(F)F)cc(CN5CCC(OCCN6CCC(CN7CCCN(c8ccc9c(c8)CN(C8CCC(=O)NC8=O)C9=O)CC7)CC6)CC5)cn4c3=O)c2)COC1 (stereo not drawn)
A: 300 to 1000 nM

Q: Quick one: Cn1cnnc1[C@@H](c1cccc(-n2cc3c(C(F)(F)F)cc(CN4CCC(CC(=O)N5CCC(CN6CCN(c7ccc8c(c7)CN([C@@H]7CCC(=O)NC7=O)C8=O)CC6)CC5)CC4)cn3c2=O)c1)C1CCC1 (single isomer, unassigned)
A: 30 to 300 nM

Q: Quick one: CN(CCN(C)C(=O)c1cc(C(F)(F)F)c2cn(-c3cccc([C@H](c4nncn4C)C4CCC4)c3)c(=O)n2c1)C(=O)c1ccc(N2CCN(c3ccc4c(c3)CN([C@@H]3CCC(=O)NC3=O)C4=O)CC2)cc1 (single isomer, unassigned)
A: > 10000 nM

----------
# system: Cbl-B (Homo sapiens)
# Construct: MSD-Based Assay for Degradation of Cbl-B in THP-1 Cells; endogenous in cells; host or cells: THP-1 (title) / Jurkat (protocol text)
# test: MSD-based assay for degradation of Cbl-B in THP-1 cells
# Assay type: cell-based
# test-parameters: THP-1
Consider the following compounds; for each one, report its Dmax.

Q: Need Dmax of Cn1cnnc1[C@@H](c1cccc(-n2cc3c(C(F)(F)F)cc(CN4CCC[C@@H](COCc5ccc(CN6CCN(c7ccc8c(c7)CN([C@H]7CCC(=O)NC7=O)C8=O)CC6)cc5)C4)cn3c2=O)c1)C1CCC1 (single isomer, unassigned) [Compound 234] , thanks.
A: > 70%

Q: Quick one: Cn1cnnc1[C@@H](c1cccc(-n2cc3c(C(F)(F)F)cc(CN4CCC(OCCOCc5ccc(CC6CCN(c7ccc8c(c7)CN([C@@H]7CCC(=O)NC7=O)C8=O)CC6)cc5)CC4)cn3c2=O)c1)C1CCC1 (single isomer, unassigned) [Compound 173]
A: 30 to 50%

Q: Quick one: Cn1cnnc1[C@@H](c1cccc(-n2cc3c(C(F)(F)F)cc(CN4CCC(COCc5ccc(CN6CCN(c7ccc8c(c7)CN([C@@H]7CCC(=O)NC7=O)C8=O)CC6)cc5)CC4)cn3c2=O)c1)C1CCC1 [Compound 101]
A: 50 to 70%
